# protocol-details: chemical genetic growth profiling, strain panel (AID 1159580);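 note: tested at 20 µM; growth read once vehicle control cultures reached saturation at 30 °C; 1 = growth at the plate median or of vehicle wells; lower values mean less growth of the strain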
# measurement-conditions: S. cerevisiae deletion strains, growth OD, locus YER155C, strain BEM2
About 2,000 (36%) of roughly 5,500 compounds were called active. About 18% were inconclusive and are not listed. Cut-off read from the data, not from the text of the source: active = normalized growth mostly below about 0.91 (no sharp cut-off); inconclusive = no clear call, values can overlap the other calls; inactive = mostly above about 0.92. This is one part of the list. Where a SMILES comes first, the peptide text is derived from it. Bridges are numbered along the chain shown (N, C = ends). [ ]: non-standard residue; d: D form. The star is where a group is joined. Octanoyl(6-Me) = CCC(C)CCCCC(=O)*; Orn = NCCC[CH](N)C(=O)O; Dab = NCC[CH](N)C(=O)O
Thanks in advance; please answer with one of these: active, inactive

These recorded examples may help you get a feel for the data.
{"compound": "COc1ccc2c(c1)[C@]13CCCC[C@H]1[C@H](C2)N(C)CC3", "label": "inactive"}
{"compound": "CC1(C)C=Cc2cc3ccc(=O)oc3cc2O1", "label": "inactive"}

Input: // param item: CC(C)CC1NC(=O)C(CCCN)NC(=O)C(C(C)C)NC(=O)C2CCCN2C(=O)C(Cc2ccccc2)NC(=O)C(CC(C)C)NC(=O)C(CCCN)NC(=O)C(C(C)C)NC(=O)C2CCCN2C(=O)C(Cc2ccccc2)NC1=O (stereo not given) (cyclo(FPV[Orn]LFPV[Orn]L); configuration not given here) ; yields the recorded call
Output: inactive

Input: // param item: `CC(=O)[O][Hg][c]1ccccc1` ; yields the recorded call
Output: active

Input: // param item: CCC(C)CCCCC(=O)NC(CCN)C(=O)NC(C(=O)NC(CCN)C(=O)NC1CCNC(=O)C(C(C)O)NC(=O)C(CCN)NC(=O)C(CCN)NC(=O)C(CC(C)C)NC(=O)C(Cc2ccccc2)NC(=O)C(CCN)NC1=O)C(C)O (stereo not given) ({Octanoyl(6-Me)}-[Dab]T[Dab][Dab][Dab]FL[Dab][Dab]T; lactam 4-C; configuration not given here) ; yields the recorded call
Output: inactive

###

// reported normalized growth for each item listed
# protocol-details: chemical genetic growth profiling, strain panel (AID 1159580);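 note: tested at 20 µM; growth read once vehicle control cultures reached saturation at 30 °C; 1 = growth at the plate median or of vehicle wells; lower values mean less growth of the strain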
# measurement-conditions: S. cerevisiae deletion strains, growth OD, locus YDL040C, strain nat1, stronger effect = lower value
The whole screen tested about 5,500 compounds, of which about 2,000 (36%) were called active. Roughly 18% stayed inconclusive and do not appear here. The list shows a part of the results.
Give the figure by itself; no unit, no explanation.

{"compound": "CCCCc1nc(Cl)c(CO)n1Cc1ccc(-c2ccccc2-c2nn[nH]n2)cc1", "normalized growth": 0.971}

Input: Let me know recorded normalized growth for CC(=O)CC1CCCCN1 (stereo unspecified) , thanks.
Output: 1.02

Input: Let me know recorded normalized growth for C[C@]12CCC(=O)C=C1CCC1C2C(=O)C[C@@]2(C)C1CC[C@]2(O)C(=O)CO (stereo partly specified) , thanks.
Output: 1

Input: Let me know recorded normalized growth for `O=C(O)c1cc(=O)c2c(Cl)cc(Cl)cc2[nH]1` , thanks.
Output: 1.01

Input: Let me know recorded normalized growth for CC(=O)OCC1=C(C(=O)O)N2C(=O)[C@@H](NC(=O)CCCC(N)C(=O)O)C2SC1 (stereo partly specified) , thanks.
Output: 0.99

Input: Let me know recorded normalized growth for `CC1(C)C=Cc2cc3ccc(=O)oc3cc2O1` , thanks.
Output: 0.962
